# maps each entry to its normalized RNA/DNA level with ligand (log10)
B1: library; a variant is named by its letters at N, in order (parent)
chain: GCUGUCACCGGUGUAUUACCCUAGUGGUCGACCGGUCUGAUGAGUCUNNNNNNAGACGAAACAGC

- Variants of: B1
- Assay protocol: normalized RNA/DNA level with ligand (relative to sTRSVctl = 100) (log10 (% of sTRSVctl)); ligand: hypoxanthine (xanthine aptamer); higher = less ribozyme self-cleavage, higher mRNA level
- Conditions: ligand concentration (+) RNA-Seq: 5 mM, HEK293T, reporter: mCherry (pCS4076), ligand present: yes
Readout kind: normalized RNA/DNA level with ligand (log10)

>>> recorded_value("ACUCUG")
1.89
>>> recorded_value("CGUCUC")
2
>>> recorded_value("UUGCGG")
1.99
>>> recorded_value("GUGAAU")
1.9
>>> recorded_value("CCGGAC")
2
>>> recorded_value("CGUGCU")
1.91
>>> recorded_value("UGAGUG")
1.9
>>> recorded_value("GCAAAG")
1.89
>>> recorded_value("GGCGGG")
1.93
>>> recorded_value("ACACCG")
1.9
>>> recorded_value("CAUGCC")
1.92
>>> recorded_value("GUCUCA")
1.97
>>> recorded_value("GAUUCC")
1.98
>>> recorded_value("AACCAC")
1.91
>>> recorded_value("CACAAA")
1.89
>>> recorded_value("AAUGCA")
1.9
>>> recorded_value("CGCAUA")
1.9
>>> recorded_value("GAAAGC")
1.86
>>> recorded_value("UAUCGU")
1.9
>>> recorded_value("GAAUAU")
1.93
>>> recorded_value("CCUAAC")
1.93
>>> recorded_value("CAUAAC")
1.92
>>> recorded_value("AUCCCC")
1.93
>>> recorded_value("CUCCUU")
1.99
>>> recorded_value("UUAGUC")
1.98
>>> recorded_value("GUGUCG")
1.86
>>> recorded_value("ACUCGC")
1.99
>>> recorded_value("GGACGC")
1.86
>>> recorded_value("UUUUGA")
1.98
>>> recorded_value("AAACGC")
1.91
>>> recorded_value("CAUAGU")
2
>>> recorded_value("CCAACA")
1.93
>>> recorded_value("CAGCAA")
1.88
>>> recorded_value("AAGCAC")
1.89

Reference source for all entries: the supplement of paper PMC6757056
